molecular target: mouse TLR7 (Mus musculus, UniProt P58681); test: Short-term in vivo (STIV) assay: oral dosing, R848 s.c., plasma IL-6; design: female BALB/c mice (Jackson Labs, Bar Harbor, Me.) were dosed by oral gavage; tissue Jackson Labs; host or cells: living female BALB/c mice; plasma IL-6 after s.c. R848; conditions: 13 h; 300 mg/kg
Sequence (P58681 27-1050): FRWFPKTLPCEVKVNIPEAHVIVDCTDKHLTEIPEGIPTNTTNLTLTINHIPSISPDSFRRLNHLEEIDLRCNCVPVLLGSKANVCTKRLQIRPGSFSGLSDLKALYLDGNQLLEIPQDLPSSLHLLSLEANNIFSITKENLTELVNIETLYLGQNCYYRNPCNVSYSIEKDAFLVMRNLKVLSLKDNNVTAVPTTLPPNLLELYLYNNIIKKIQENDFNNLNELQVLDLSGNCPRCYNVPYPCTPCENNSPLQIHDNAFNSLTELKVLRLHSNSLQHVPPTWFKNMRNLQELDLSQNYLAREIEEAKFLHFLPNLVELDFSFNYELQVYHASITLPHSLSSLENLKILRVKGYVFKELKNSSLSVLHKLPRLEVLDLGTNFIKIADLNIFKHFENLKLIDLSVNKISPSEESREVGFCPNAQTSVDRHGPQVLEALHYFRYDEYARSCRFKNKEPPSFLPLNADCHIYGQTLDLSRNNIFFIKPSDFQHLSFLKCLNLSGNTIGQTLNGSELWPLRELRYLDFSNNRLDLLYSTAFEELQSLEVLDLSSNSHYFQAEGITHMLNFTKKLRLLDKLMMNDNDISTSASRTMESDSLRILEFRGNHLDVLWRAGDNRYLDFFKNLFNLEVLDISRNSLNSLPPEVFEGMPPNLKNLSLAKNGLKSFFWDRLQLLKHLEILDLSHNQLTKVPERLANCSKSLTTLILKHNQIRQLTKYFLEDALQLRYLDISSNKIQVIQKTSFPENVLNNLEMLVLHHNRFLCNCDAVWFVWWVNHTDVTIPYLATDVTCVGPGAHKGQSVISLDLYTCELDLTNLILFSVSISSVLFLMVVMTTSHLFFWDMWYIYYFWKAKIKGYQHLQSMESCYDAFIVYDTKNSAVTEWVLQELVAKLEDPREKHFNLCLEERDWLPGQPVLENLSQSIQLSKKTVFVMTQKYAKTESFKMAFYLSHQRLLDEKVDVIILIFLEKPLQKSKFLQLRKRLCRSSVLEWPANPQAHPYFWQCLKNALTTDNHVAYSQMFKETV
Entries and their measured % Suppression vs. Vehicle follow.

[
  {
    "compound": "CCNC(=O)C1CCN(CC2CN(c3ccc(C#N)c4ncccc34)CC(C)O2)CC1 (centres unmarked)",
    "% Suppression vs. Vehicle / %": 99
  },
  {
    "compound": "CC1CN(c2ccc(C#N)c3ncccc23)CC(CN2CCC(NC(=O)C(C)C)CC2)O1 (centres unmarked)",
    "% Suppression vs. Vehicle / %": 95
  },
  {
    "compound": "C[C@@H]1CN(c2ccc(C#N)c3ncccc23)C[C@H](CN2CCN[C@@H](C)C2)O1",
    "% Suppression vs. Vehicle / %": 99
  },
  {
    "compound": "CC1CN(c2ccc(C#N)c3ncccc23)CC(C(=O)NCC2CCCN2)O1 (centres unmarked)",
    "% Suppression vs. Vehicle / %": 71
  },
  {
    "compound": "CC1CN(c2ccc(C#N)c3ncccc23)CC(C(=O)NC2CCCNC2)O1 (centres unmarked)",
    "% Suppression vs. Vehicle / %": 85
  }
]

The reported numbers originate from patent USRE47193E1.
